Assay: in vitro
Conditions: human
property-label: pIC50
Answers are plain numbers, as −log10 of the molar value.

The following compounds have reported results that may help.
C[C@H]1[C@@H](Oc2ccc(C(=O)N[C@@H](CC3CCC3)C(=O)O)cc2)O[C@@H]2O[C@@]3(C)CC[C@H]4[C@H](C)CC[C@@H]1[C@@]24OO3 = 6.96
C[C@H]1[C@@H](Oc2ccc(OC3CCC(C(=O)O)C3)cc2)O[C@@H]2O[C@@]3(C)CC[C@H]4[C@H](C)CC[C@@H]1[C@@]24OO3 (stereo partly drawn) = 6.15
C[C@H]1[C@@H](Oc2ccc(C(=O)N[C@H]3CC[C@@H](C(=O)O)C3)cc2Cl)O[C@@H]2O[C@@]3(C)CC[C@H]4[C@H](C)CC[C@@H]1[C@@]24OO3 = 6.21
C[C@H]1[C@@H](Oc2ccc(CC(=O)N[C@H]3CC[C@H](C(=O)O)C3)cc2)O[C@@H]2O[C@@]3(C)CC[C@H]4[C@H](C)CC[C@@H]1[C@@]24OO3 = 4.93
C[C@H]1[C@@H](Oc2ccc(C(=O)N3CC[C@@H](C(=O)O)C3)cc2Cl)O[C@@H]2O[C@@]3(C)CC[C@H]4[C@H](C)CC[C@@H]1[C@@]24OO3 = 5.85

Problem: Name the reported pIC50 value associated with the compound `C[C@H]1[C@@H](Oc2ccc3cc(C(=O)O)ccc3c2)O[C@@H]2O[C@@]3(C)CC[C@H]4[C@H](C)CC[C@@H]1[C@@]24OO3`
Result: 6.66

* * *

Assay: in vitro
Conditions: human
pIC50: −log10 of the molar value.
Use MET when the recorded pIC50 is no lower than 5; use NOT MET when it is lower.

Example cases with answers are listed next.
C[C@H]1[C@@H](OCc2ccc(OCC(=O)O)cc2)O[C@@H]2OC3(C)CC[C@H]4[C@H](C)CC[C@@H]1[C@@]24OO3 (stereo in doubt) = NOT MET
C[C@H]1[C@@H](O[C@H]2CC[C@@H](C(=O)N[C@H](C(=O)O)C(C)(C)O)CC2)O[C@@H]2O[C@@]3(C)CC[C@H]4[C@H](C)CC[C@@H]1[C@@]24OO3 = NOT MET
C[C@H]1[C@@H](Oc2ccc(Cn3cc(C(=O)O)nn3)cc2)O[C@@H]2O[C@@]3(C)CC[C@H]4[C@H](C)CC[C@@H]1[C@@]24OO3 = NOT MET
C[C@H]1[C@@H](Oc2ccc(OCCC(=O)O)cc2)O[C@@H]2O[C@@]3(C)CC[C@H]4[C@H](C)CC[C@@H]1[C@@]24OO3 = NOT MET
C[C@H]1[C@@H](Oc2ccc(C(C)(C)C(=O)O)cc2F)O[C@@H]2O[C@@]3(C)CC[C@H]4[C@H](C)CC[C@@H]1[C@@]24OO3 = MET
C[C@H]1[C@@H](OC[C@H]2CC[C@@H](C(=O)N3CC[C@@H](C(=O)O)C3)CC2)O[C@@H]2O[C@@]3(C)CC[C@H]4[C@H](C)CC[C@@H]1[C@@]24OO3 = NOT MET
CO[C@]1(CO[C@H]2O[C@@H]3O[C@@]4(C)CC[C@H]5[C@H](C)CC[C@@H]([C@H]2C)[C@@]35OO4)CC[C@@H](C(=O)O)CC1 = NOT MET
C[C@H]1[C@@H](Oc2ccc(O[C@H]3CC[C@@H](C(=O)O)CC3)cc2)O[C@@H]2O[C@@]3(C)CC[C@H]4[C@H](C)CC[C@@H]1[C@@]24OO3 = MET
Cc1cc(C(=O)O)cc(Cl)c1CO[C@H]1O[C@@H]2O[C@@]3(C)CC[C@H]4[C@H](C)CC[C@@H]([C@H]1C)[C@@]24OO3 = MET
C[C@H]1[C@@H](OCc2ccc(C(=O)N[C@H]3C[C@@H](C(=O)O)C3)cc2)O[C@@H]2O[C@@]3(C)CC[C@H]4[C@H](C)CC[C@@H]1[C@@]24OO3 = NOT MET

Problem: Determine whether this compound has pIC50 no lower than 5: `C[C@H]1[C@@H](Oc2ccc(C(=O)N[C@H](C(=O)O)C3CCCCC3)cc2)O[C@@H]2O[C@@]3(C)CC[C@H]4[C@H](C)CC[C@@H]1[C@@]24OO3`
Result: MET

Problem: And then `C[C@H]1[C@@H](OC(C)(C)[C@H]2C[C@@H](C(=O)O)C2)O[C@@H]2O[C@@]3(C)CC[C@H]4[C@H](C)CC[C@@H]1[C@@]24OO3` , what is it?
Result: NOT MET

Problem: And then `C[C@H]1[C@@H](Oc2ccc(C3(C(=O)O)COC3)cc2)O[C@@H]2O[C@@]3(C)CC[C@H]4[C@H](C)CC[C@@H]1[C@@]24OO3` , what is it?
Result: NOT MET

Problem: Likewise for `C[C@H]1[C@@H](Oc2cc(Cl)cc(CC(=O)O)c2)O[C@@H]2O[C@@]3(C)CC[C@H]4[C@H](C)CC[C@@H]1[C@@]24OO3` ?
Result: MET

Problem: What do we get for `C[C@H]1[C@@H](OCC(=O)N[C@H](C(=O)O)C(C)(C)C)O[C@@H]2O[C@@]3(C)CC[C@H]4[C@H](C)CC[C@@H]1[C@@]24OO3` ?
Result: NOT MET

Problem: Ok, now CC(C)C(C(=O)O)c1ccc(O[C@H]2O[C@@H]3O[C@@]4(C)CC[C@H]5[C@H](C)CC[C@@H]([C@H]2C)[C@@]35OO4)c(F)c1 (stereo partly shown)
Result: MET

Problem: How about this compound: `C[C@H]1[C@@H](Oc2ccc(CC(=O)N[C@H](C(=O)O)C3CC3)cc2)O[C@@H]2O[C@@]3(C)CC[C@H]4[C@H](C)CC[C@@H]1[C@@]24OO3`
Result: NOT MET

Problem: `C[C@H]1[C@@H](Oc2ccc(C(=O)N[C@H](C(=O)O)c3ccccc3)cc2)O[C@@H]2O[C@@]3(C)CC[C@H]4[C@H](C)CC[C@@H]1[C@@]24OO3` ?
Result: MET

Problem: One more compound: `C[C@H]1[C@@H](Oc2ccc(C(=O)N[C@H]3CCC(=O)NC3=O)cc2)O[C@@H]2O[C@@]3(C)CC[C@H]4[C@H](C)CC[C@@H]1[C@@]24OO3`
Result: MET
